- SYSTEM: Non-receptor tyrosine-protein kinase TNK1 (Homo sapiens) (UniProt Q13470);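 further: reported values are mean inhibition figures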
- Sequence (Q13470 whole entry): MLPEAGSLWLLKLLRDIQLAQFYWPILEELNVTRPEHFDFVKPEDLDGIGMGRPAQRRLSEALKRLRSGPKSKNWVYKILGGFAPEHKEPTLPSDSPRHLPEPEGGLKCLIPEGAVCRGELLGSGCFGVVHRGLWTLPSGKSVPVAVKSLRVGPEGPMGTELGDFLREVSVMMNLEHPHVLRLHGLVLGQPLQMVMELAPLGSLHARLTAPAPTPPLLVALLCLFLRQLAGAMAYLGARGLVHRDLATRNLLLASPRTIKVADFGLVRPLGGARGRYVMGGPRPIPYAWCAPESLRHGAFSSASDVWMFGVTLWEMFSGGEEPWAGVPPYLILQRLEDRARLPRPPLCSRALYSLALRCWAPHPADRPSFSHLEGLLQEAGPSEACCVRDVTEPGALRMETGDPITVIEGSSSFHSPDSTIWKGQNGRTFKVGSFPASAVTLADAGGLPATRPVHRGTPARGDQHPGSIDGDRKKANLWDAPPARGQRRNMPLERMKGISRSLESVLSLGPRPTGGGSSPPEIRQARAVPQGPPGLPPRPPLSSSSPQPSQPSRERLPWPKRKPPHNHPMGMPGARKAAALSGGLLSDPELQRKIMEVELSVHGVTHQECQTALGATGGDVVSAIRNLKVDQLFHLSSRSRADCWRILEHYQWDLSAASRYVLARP
- APPLIED CONDITIONS: at 0.1 µM
inhibition values for the compounds below.
Please answer using a numeric value trailed by its unit.

Examples from the recorded data:
Recorded inhibition for "CCn1c(-c2nonc2N)nc2c(C#CC(C)(C)O)nc(O[C@@H](CN)c3ccccc3)cc21" , please?
-3.17%

Same question, "CCn1c(-c2nonc2N)nc2c(C#CC(C)(C)O)ncc(OC[C@@H]3CCCN3)c21" this time
2.04%

Same question, "Nc1nonc1-c1nc2cnccc2n1C1CCCCC1" this time
-1.33%

Same question, "CCn1c(-c2nonc2N)nc2c(C#CC(C)(C)O)ncc(OCC3CCNCC3)c21" this time
1.75%

Further cases:
Recorded inhibition for "COc1cccc(COc2cc(-n3cnc4ccccc43)sc2C(N)=O)c1" , please?
0.87%

Same question, "Fc1ccc(-c2ncn(C3CCNCC3)c2-c2ccnc(Oc3ccccc3)n2)cc1" this time
0.27%

----------
- SYSTEM: Mitogen-activated protein kinase 13 (Homo sapiens) (UniProt O15264);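 further: reported value is the mean percent inhibition of p38delta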
- Sequence (O15264 whole entry): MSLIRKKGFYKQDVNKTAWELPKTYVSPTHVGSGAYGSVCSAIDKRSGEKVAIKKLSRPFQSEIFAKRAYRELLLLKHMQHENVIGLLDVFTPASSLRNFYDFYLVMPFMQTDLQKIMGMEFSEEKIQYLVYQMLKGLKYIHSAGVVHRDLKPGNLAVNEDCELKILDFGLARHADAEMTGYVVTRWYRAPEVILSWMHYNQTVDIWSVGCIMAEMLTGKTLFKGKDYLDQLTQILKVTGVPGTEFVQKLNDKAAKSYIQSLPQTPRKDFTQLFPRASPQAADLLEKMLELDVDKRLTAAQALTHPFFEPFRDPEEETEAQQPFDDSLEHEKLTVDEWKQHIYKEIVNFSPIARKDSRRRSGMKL
- APPLIED CONDITIONS: at 0.1 µM
inhibition values for the molecules below.
Report the value in % with no unit label.

Examples from the recorded data:
Recorded inhibition for "COc1cc(C=NNc2ncnc3c2cnn3Cc2ccccc2)ccc1O" , please?
-0.79

Same question, "NS(=O)(=O)c1ccc(-c2ccc3c(NC(=O)C4CC4)n[nH]c3c2)cc1" this time
3.91

Same question, "COc1cccc(COc2cc(-n3cnc4ccccc43)sc2C(N)=O)c1" this time
-0.06

Same question, "CCn1c(-c2nonc2N)nc2c(C#CC(C)(C)O)ncc(OC[C@@H]3CCCN3)c21" this time
0.68

Same question, "NS(=O)(=O)c1ccc(N/C=C2\C(=O)Nc3ccc4ncsc4c32)cc1" this time
4.52

Further cases:
Recorded inhibition for "CCn1c(-c2nonc2N)nc2c(C#CC(C)(C)O)ncc(OCC3CCNCC3)c21" , please?
1.99

Same question, "CCn1c(-c2nonc2N)nc2c(C#CC(C)(C)O)nc(O[C@@H](CN)c3ccccc3)cc21" this time
1.2

Same question, "Cc1cc(-c2ccco2)cc(C)c1/C=C/c1cncc(-c2nn[nH]n2)c1" this time
0.77

Same question, "Nc1nonc1-c1nc2cnccc2n1C1CCCCC1" this time
-3.11

Same question, "COc1cc2c(cc1Nc1nc(Nc3ccsc3C(N)=O)c3cc[nH]c3n1)N(C(=O)CN(C)C)CCC2" this time
1.18

Same question, "CCn1c(-c2nonc2N)nc2c(C#CCN)ncc(OCCCN)c21" this time
2.51

----------
- SYSTEM: Mitogen-activated protein kinase 14 (Homo sapiens);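 further: values are mean percent inhibition of p38α kinase from the GSK PKIS published kinase inhibitor set screen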
- APPLIED CONDITIONS: at 0.1 µM
MEASUREMENT KIND: inhibition (%)
Report the value in % with no unit label.

Examples from the recorded data:
Recorded inhibition for "CCn1c(-c2nonc2N)nc2c(C#CC(C)(C)O)ncc(OC[C@@H]3CCCN3)c21" , please?
0.34

Same question, "Nc1nonc1-c1nc2cnccc2n1C1CCCCC1" this time
-0.43

Same question, "COc1cccc(COc2cc(-n3cnc4ccccc43)sc2C(N)=O)c1" this time
1.67

Further cases:
Recorded inhibition for "NS(=O)(=O)c1ccc(N/C=C2\C(=O)Nc3ccc4ncsc4c32)cc1" , please?
18.6

Same question, "CCn1c(-c2nonc2N)nc2c(C#CCN)ncc(OCCCN)c21" this time
2.31

Same question, "CCn1c(-c2nonc2N)nc2c(C#CC(C)(C)O)nc(O[C@@H](CN)c3ccccc3)cc21" this time
1.44

Same question, "NC(=O)c1sc(-n2cnc3cc(C(F)(F)F)ccc32)cc1OCc1ccccc1Br" this time
1.34

Same question, "COc1cccc(-n2ncc3c(N/N=C/c4ccncc4)ncnc32)c1" this time
9.43

Same question, "COc1cc(C=NNc2ncnc3c2cnn3Cc2ccccc2)ccc1O" this time
-2.19

The measured values listed here are drawn from ChEMBL document CHEMBL1961873.
